Values were extracted from paper PMC5700166.

TEST SYSTEM: GST-Dm-Relish (Drosophila melanogaster, UniProt Q94527 99-473)
Sequence: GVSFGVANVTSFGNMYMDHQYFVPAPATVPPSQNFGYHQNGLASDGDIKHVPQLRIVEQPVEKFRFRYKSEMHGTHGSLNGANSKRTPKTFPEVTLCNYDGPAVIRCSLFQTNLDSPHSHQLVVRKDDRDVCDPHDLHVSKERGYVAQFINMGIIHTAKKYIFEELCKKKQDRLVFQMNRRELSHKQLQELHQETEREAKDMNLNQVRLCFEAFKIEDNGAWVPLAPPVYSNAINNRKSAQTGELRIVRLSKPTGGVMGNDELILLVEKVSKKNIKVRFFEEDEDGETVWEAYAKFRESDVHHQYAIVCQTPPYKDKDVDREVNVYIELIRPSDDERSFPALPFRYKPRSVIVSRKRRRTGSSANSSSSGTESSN
EXPERIMENT: protein-binding microarray (PBM); PBM: ~300 nM protein, 6 mM HEPES pH 7.8, 80 mM KCl, 0.5 mM EDTA, 0.5 mM EGTA, 6% glycerol, 35 ng/ul poly-dIdC, 1% milk, 1 h, room temperature; Ap Aiptasia and Nv Nematostella (sea anemones) / Co Capsaspora / Aq Amphimedon (sponge) / Dm Drosophila / Hu human; RHD is the Rel homology domain; high values mean tight binding
MEASUREMENT SETUP: dsDNA, one strand shown
READOUT NAME: binding signal (z-score)
Numbers only, in z-score.

Consider the worked cases shown below.
{"columns": ["RECORD SEQUENCE", "OBSERVED VALUE"],
 "data": [
  ["CCGATTAACATCAACGGATTCCCTGATGTTAATCGGGTCTTGATTCGCTTGACGCTGCTG", 5.42],
  ["CCGATTAACATCACCCATCCCCCTGATGTTAATCGGGTCTTGATTCGCTTGACGCTGCTG", 2.93],
  ["CCGATTAACATCAAGTAATCCCCTGATGTTAATCGGGTCTTGATTCGCTTGACGCTGCTG", 7.56],
  ["CCGATTAACATCAGGGACACCCCTGATGTTAATCGGGTCTTGATTCGCTTGACGCTGCTG", 7.09]
]}

Turning to the following sequence.
Look up binding signal: "CCGATTAACATCAGGGCCTTTTGTGATGTTAATCGGGTCTTGATTCGCTTGACGCTGCTG"
5.05
